Test system Kappa-type opioid receptor (Homo sapiens), Ke listed for each of the compounds.
Please state the number and follow it with the unit.

Compound | Ke
CO[C@H]1Cc2ccc(O)cc2C(C)(C)[C@@H]1NC/C=C/c1ccccc1 | 2.12 nM

INPUT: # query: Ke | item Oc1ccc2c3c1O[C@H]1c4[nH]c5c(c4C[C@@]4(O)[C@@H](C2)N(CC2CC2)CC[C@]314)C[C@@]1(O)[C@H]2Cc3ccc(O)c4c3[C@@]1(CCN2CC1CC1)[C@H]5O4 | system: Kappa-type opioid receptor (Homo sapiens)
OUTPUT: 0.03 nM

INPUT: Query Ke on Kappa-type opioid receptor (Homo sapiens) for CO[C@H]1Cc2ccc(O)cc2C(C)(C)[C@@H]1N
OUTPUT: 49.3 nM

INPUT: Hi! What's the reported Ke for CC1(C)c2cc(O)ccc2CCC1NC/C=C/c1ccccc1 (centres undefined) on Kappa-type opioid receptor (Homo sapiens)?
OUTPUT: 42.7 nM

---

The following compounds each carry a recorded Ki for Kappa-type opioid receptor (Homo sapiens, UniProt P41145).
State just the number; it will be interpreted in µM.

Compound | Ki [µM]
CO[C@H]1Cc2ccc(O)cc2C(C)(C)[C@@H]1N | 0.149
CCCNC1CCc2ccc(O)cc2C1(C)C (stereo not drawn) | 0.251

// switching to the query compound
INPUT: Please provide the recorded Ki for CCCN(C)C1CCc2ccc(O)cc2C1(C)C (stereo not drawn) , tested on Kappa-type opioid receptor (Homo sapiens, UniProt P41145).
Sequence (P41145 whole entry): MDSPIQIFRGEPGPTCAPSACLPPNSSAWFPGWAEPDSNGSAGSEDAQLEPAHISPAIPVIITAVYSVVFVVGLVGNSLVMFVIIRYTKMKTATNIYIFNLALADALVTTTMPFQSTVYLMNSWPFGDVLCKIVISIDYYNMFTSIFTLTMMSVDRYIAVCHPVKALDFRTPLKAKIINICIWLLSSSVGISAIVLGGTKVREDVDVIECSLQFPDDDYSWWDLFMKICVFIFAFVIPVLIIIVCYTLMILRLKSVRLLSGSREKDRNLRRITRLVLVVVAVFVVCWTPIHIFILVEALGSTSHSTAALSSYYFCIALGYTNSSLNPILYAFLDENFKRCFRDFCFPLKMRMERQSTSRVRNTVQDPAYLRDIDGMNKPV
OUTPUT: 0.184

---

Tested target: Mu-type opioid receptor (Homo sapiens, UniProt P35372)
Sequence (P35372 whole entry): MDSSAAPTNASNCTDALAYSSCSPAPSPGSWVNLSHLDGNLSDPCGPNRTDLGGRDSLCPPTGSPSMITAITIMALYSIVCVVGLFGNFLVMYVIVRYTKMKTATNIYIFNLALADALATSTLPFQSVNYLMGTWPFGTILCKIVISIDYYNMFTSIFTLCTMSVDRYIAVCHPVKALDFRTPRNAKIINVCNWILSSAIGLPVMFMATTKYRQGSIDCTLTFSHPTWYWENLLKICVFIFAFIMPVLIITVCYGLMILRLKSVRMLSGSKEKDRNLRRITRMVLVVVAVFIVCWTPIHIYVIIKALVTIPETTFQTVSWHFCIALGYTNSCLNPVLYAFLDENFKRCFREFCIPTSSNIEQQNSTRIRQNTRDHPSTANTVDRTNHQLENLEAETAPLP
pKi: −log10 of the molar value.
Could you label it MET if measured pKi is 7 or higher, and NOT MET otherwise?

Would you please look over these solved cases?
Compound | Assigned label
CO[C@H]1Cc2ccc(O)cc2C(C)(C)[C@@H]1NC/C=C/c1ccccc1 | MET
C=CCNC1CCc2ccc(O)cc2C1(C)C (centres undefined) | NOT MET
CC1(C)c2cc(O)ccc2CCC1NC/C=C/c1ccccc1 (centres undefined) | MET
CO[C@H]1Cc2ccc(O)cc2C(C)(C)[C@@H]1N | MET
CC1(C)c2cc(O)ccc2CCC1NCC1CC1 (centres undefined) | NOT MET

Field: next compound
INPUT: // inclusive: pKi at least 7? input: CCCNC1CCc2ccc(O)cc2C1(C)C (centres undefined)
OUTPUT: NOT MET

---

Tested target: Kappa-type opioid receptor (Homo sapiens)
Entries and their pKi values follow.
Quick note: pKi means taking -log10 of the concentration in moles per liter.

The cases that follow already have their pKi on record.
Compound | Value reported
CC1(C)c2cc(O)ccc2CCC1NCC1CC1 (configuration not stated) | 6.63
C=CCNC1CCc2ccc(O)cc2C1(C)C (configuration not stated) | 7.20
CC1(C)c2cc(O)ccc2CCC1NC/C=C/c1ccccc1 (configuration not stated) | 7.08
CCCN(CCC)C1CCc2ccc(O)cc2C1(C)C (configuration not stated) | 6.26
CO[C@H]1Cc2ccc(O)cc2C(C)(C)[C@@H]1NC/C=C/c1ccccc1 | 8.12

INPUT: Provide value of pKi for this record tested with Kappa-type opioid receptor (Homo sapiens): CN(CC1CC1)C1CCc2ccc(O)cc2C1(C)C (configuration not stated)
OUTPUT: 6.84

INPUT: For Kappa-type opioid receptor (Homo sapiens), provide pKi of C=CCN(CC=C)C1CCc2ccc(O)cc2C1(C)C (configuration not stated) please.
OUTPUT: 7.25

INPUT: Report pKi for CC1(C)c2cc(O)ccc2CCC1N(C/C=C/c1ccccc1)C/C=C/c1ccccc1 (configuration not stated) tested on Kappa-type opioid receptor (Homo sapiens).
OUTPUT: 5.90

INPUT: What is its pKi for Kappa-type opioid receptor (Homo sapiens)? Entry: CN(C)C1CCc2ccc(O)cc2C1(C)C (configuration not stated)
OUTPUT: 6.48

INPUT: // map CC1(C)c2cc(O)ccc2CCC1N(CC1CC1)CC1CC1 (configuration not stated) to recorded pKi (system: Kappa-type opioid receptor (Homo sapiens))
OUTPUT: 5.74

INPUT: Entry C=CCN(C)C1CCc2ccc(O)cc2C1(C)C (configuration not stated) , system Kappa-type opioid receptor (Homo sapiens): what pKi was measured?
OUTPUT: 6.58

INPUT: Form field - read-out: pKi; system: Kappa-type opioid receptor (Homo sapiens); submitted item: CN(C/C=C/c1ccccc1)C1CCc2ccc(O)cc2C1(C)C (configuration not stated)
OUTPUT: 6.68
